Test system: HOP-92
Assay: NCI tumour cell line growth inhibition, 48 h
Activity calls are given as the source filed them. No stated cut-off is given here; in the data, active = GI50 up to about 1.1 µM and inactive = higher.
The reply should name one outcome from Yes (active), No (inactive)

Reference set (4 entries):
compound: CC1=NN(c2nc(N)nc(CSc3nc4n(c(=S)n3)CCN4)n2)C(C)(C)C1
category_label: No

compound: C[C@@H](CC(O)C(O)C(C)(C)O)C1CCC23CC12CCC1[C@@]2(C)CCC(O)C(C)(C)C2CC(OC2OC(CO)C(O)C(O)C2O)[C@]13C (stereo partly drawn)
category_label: No

compound: Cn1c2ccccc2c2ccc3c(c21)C(=O)C=CC3=O
category_label: No

compound: CC(C)(C)OC(=O)NCCCCCCC(=O)Cc1ccccc1
category_label: No

For C[n+]1c2ccccc2c(CNc2ccc(S(=O)(=O)N=C(N)N)cc2)c2ccccc21 , what call appears in the results of this test?
No

For Cc1ccc(NC(=O)CCc2nnc3s/c(=C\c4cccc([N+](=O)[O-])c4)c(=O)n23)cc1 , what call appears in the results of this test?
No

For O=C1c2ccc3c4ccc5c6c(ccc(c7ccc(c2c37)C(=O)N1CCN1CCCCC1)c64)C(=O)N(CCN1CCCCC1)C5=O , what call appears in the results of this test?
No

For Cc1cc(C(=O)N2CCN(Cc3ccccc3)CC2)c(C)o1 , what call appears in the results of this test?
No

For C=C(CCC/C(C)=C/C=C/[C@]1(C)CCCc2ccoc21)CC(=O)O , what call appears in the results of this test?
No

For COC1(c2cccs2)c2ccccc2C(OC)(c2cccs2)c2ccccc21 (stereo not drawn) , what call appears in the results of this test?
No

For CC(C)[Si](OCC1CC(C[C@H]2CC(C[C@H]3C[C@@H](CO[Si](C(C)C)(C(C)C)C(C)C)OC(C)(C)O3)OC(C)(C)O2)OC(C)(C)O1)(C(C)C)C(C)C (stereo partly drawn) , what call appears in the results of this test?
No

For CC1(C)N=C(N)N=C(N)N1c1ccc(Cl)cc1 , what call appears in the results of this test?
No

---

Tested on: MDA-N
Test: NCI tumour cell line growth inhibition, 48 h
Calls of active or inactive are those of the source. No stated cut-off is given here; in the data, active = GI50 up to about 1.1 µM and inactive = higher.
The reply should name one outcome from Y = active, N = inactive

Reference set (3 entries):
molecule: CC1=C2C(=C[C@H]3[C@]4(C)CCCC(C)(C)[C@H]4CC[C@]34O[C@H]24)OC1=O
category_label: N

molecule: O=c1c2cccnc2n2n1Cc1ccccc1C2
category_label: N

molecule: Oc1cc(Br)cc2cc(Br)cnc12
category_label: N

For C/C(=N\NC(=S)NCc1ccccc1)c1nc2cccnc2[nH]1 , what call appears in the results of this test?
N

For CCOC(=O)c1cc(C)nc2c1c(=O)n(-c1ccccc1)c(=O)n2CCCCN1CCN(c2ncccn2)CC1 , what call appears in the results of this test?
N

For O=C1CCCCC/C1=C\c1ccccc1 , what call appears in the results of this test?
N

For O=[N+]([O-])/C(C(Cl)=C(Cl)Cl)=C(/Cl)SCc1ccccc1 , what call appears in the results of this test?
N

For COc1ccc(N2C(=O)C3CC4=CC(=O)C[C@H]4[C@H]32)cc1 (stereo partly drawn) , what call appears in the results of this test?
N

For CCN1CCC(O)(c2ccc(Oc3ccc(F)cc3)cc2)C(C(=O)c2ccc(Oc3ccc(F)cc3)cc2)C1 (stereo not drawn) , what call appears in the results of this test?
N

For CCCCC/C(=N\c1[nH]cnc1C(N)=O)OCC , what call appears in the results of this test?
N

For COC(=O)C(Cc1nc2ccccc2nc1O)C(=O)C(=O)Nc1cc(C(F)(F)F)ccc1Cl (stereo not drawn) , what call appears in the results of this test?
N
